ASSAY READOUT: melting point

Consider C1CCC(Nc2nc(NC3CCCCC3)nc(NC3CCCCC3)n2)CC1 . Its measured melting point is 225 °C

Data point: Cc1nc2c(N)nc3ccccc3c2n1CCCCNS(C)(=O)=O ; melting point = 229 to 230 °C

melting point reported for this compound CCOC(=O)C(NC=O)=C1CC2CCC(C1)N2C(=O)OCc1ccccc1 : 124 °C

compound COc1ccc(CC(C#N)=CNc2ccccc2)c2ccccc12 , melting point observed: 188 to 189 °C

Sample N=C(N)NCCCCN[N+](=O)[O-] ; melting point observed: 123 to 124 °C

Note to self: melting point recorded for Cc1ccccc1-c1cc(N2CCOCC2)ncc1C(N)=O was 144 to 145 °C

Sample CNCc1ccc(C2CCN(c3cc4c(cc3F)c(=O)c(C(=O)O)cn4C3CC3)C2)cc1 (stereo unspecified) ; melting point observed: 235 to 237 °C

// recorded melting point for CCOC(=O)c1ccc([C@H]2CC[C@H](NCc3ccccc3)CC2)cc1 : 74 to 76 °C

The compound listed as Cc1ccc(S(=O)(=O)C[N+](=O)[O-])s1 has a reported melting point of 73 to 74 °C

Reported melting point ( Cc1ccc(-c2ccc(-c3nnn[nH]3)cc2)cc1C ) = 192 to 194 °C

OC(=S)CC1c2ccccc2Oc2ccccc21 has a reported melting point of 131 to 132 °C
